# assay-comment: NCI Yeast Anticancer Drug Screen. Data for the mec2-1 strain (AID 157)
# experimental-conditions: S. cerevisiae mec2-1 strain, at 50.0 µM, hits give high values
About 79,000 compounds went through this panel and 15% of them were active in at least one assay; those are over-represented in the sample as a whole. Where a SMILES comes first, the peptide text is derived from it. Bridges are numbered along the chain shown (N, C = ends). [ ]: non-standard residue; d: D form. The star is where a group is joined. Cbz = O=C(OCc1ccccc1)*; Aib = CC(C)(N)C(=O)O; OBn = c1ccc(CO*)cc1; βAla = NCCC(=O)O
Below: a set of entries, each annotated with reported growth inhibition.
Give the number; % is assumed, so skip it.

Sample answers from the record:
molecule: Cc1cc(N)c(N=Cc2ccccc2[N+](=O)[O-])cc1C
observed-value: 11.5
//
molecule: O=C(O)c1ccc(O)cc1O
observed-value: 18.6
//
molecule: Cc1ccc(-c2cc(-c3ccco3)c(C#N)c(=O)[nH]2)cc1
observed-value: -8.55
//
molecule: CC(=O)Nc1ccc(/C=C2/C(=O)ON=C2C)cc1
observed-value: 6.6
//
molecule: CC1(C)NC(=O)C(NC(=O)C(CC(=O)OCc2ccccc2)NC(=O)OCc2ccccc2)CCCCNC(=O)CCNC1=O (stereo not given) (Cbz-D(OBn)K[Aib][βAla]; lactam 2-C; configuration not given here)
observed-value: -11.6

Entry c1ccc(C2NC(c3ccccc3)c3c(ccc4ccccc34)O2)cc1 (stereo not given) — recorded growth inhibition = -2.1

Form field growth inhibition, entry Cc1ccc(NC(=O)N2CC2(C)C)cc1NC(=O)N1CC1(C)C : 0.55

# credit: PubChem BioAssay (NCI)
